Experiment: mitochondrial membrane potential change in A549 cells, profiling panel, cell-based, JC-1 fluorescence, basal, 24 h, 100 nL (AID 1138);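 further: A549 lung adenocarcinoma cells under basal conditions with no added stimulus; test concentration not given here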
Conditions: higher = more signal
Classification field: enter 1 for z-score values not below 0.2, -1 for values below it.

Example entries and their recorded answers appear below.
INSERT INTO assay_data (compound, discrete_label) VALUES
  ('CO[C@H]1COC(=O)CCC[C@@H](C)[C@H](OC)COC(=O)[C@@H](C)NC(=O)CC=C[C@@H]1C', -1),
  ('C#CCCCON=C1C[C@@H](O)[C@@H](O)[C@@H]2[C@@H]3C(=O)N(c4cccc(Oc5ccccc5)c4)C(=O)[C@@H]3CC[C@H]12', 1),
  ('CON=CC[C@@H]1C=C[C@H](OC(C)=O)[C@@H](COC(C)=O)O1', 1),
  ('CC(=O)OC[C@H]1O[C@H](CCON=C2[C@H]3CCn4c(=O)n(-c5ccccc5)c(=O)n4[C@H]3[C@H](O)[C@@H]3O[C@H]23)C=C[C@@H]1OC(C)=O', -1),
  ('O=C(NN=C1C[C@@H](O)[C@@H](O)[C@@H]2[C@@H]3C(=O)N(C[C@@H]4CCCO4)C(=O)[C@@H]3CC[C@@H]12)OCc1ccccc1', 1),
  ('CCOC(=O)NN=C1C[C@@H](O)[C@@H](O)[C@@H]2[C@@H]3C(=O)N([C@@H](C)c4ccccc4)C(=O)[C@@H]3CC[C@H]12', -1);

(Q) Determine whether this compound has z-score no lower than 0.2: CCC1=NOC(CCC2CC(OC(=O)NCc3cccc4c3OCO4)CC3(CCCC(COC(=O)NCCc4ccccc4OC)O3)O2)C1 (stereo not given)
(A) 1

(Q) Determine whether this compound has z-score no lower than 0.2: `CC(C)=CCCC(C)=CCON=C1C[C@@H](O)[C@@H](O)[C@@H]2[C@@H]3C(=O)N(c4cccc(Oc5ccccc5)c4)C(=O)[C@@H]3CC[C@@H]12`
(A) -1

(Q) Determine whether this compound has z-score no lower than 0.2: `COc1ccc(O[C@@H]2[C@H](O)CO[C@H]2C=Cc2ccccc2)cc1`
(A) 1

(Q) Determine whether this compound has z-score no lower than 0.2: `COc1ccc(COC(=O)NN=C2C[C@@H](O)[C@@H](O)[C@@H]3[C@@H]4C(=O)N(Cc5ccccc5)C(=O)[C@@H]4CC[C@H]23)cc1`
(A) 1

---

We begin with a simple list: items and their reported composite z-score.
Target: Focal adhesion kinase 1 (Homo sapiens)
Assay: small-molecule microarray binders of FAK, primary screen, biochemical, 635/667 nm fluorescence, BSA, DTT (AID 1130);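 further: composite of spot emission at 667 nm and signal to noise over triplicate slides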
Conditions: PTK2 binding, 635 nm fluorescence, higher = more signal
Give the figure by itself; no unit, no explanation.

INSERT INTO assay_data (molecule, readout_number) VALUES
  ('CCOC(=O)[C@H](CC(C)C)NC(=O)CCC1CC(OC(=O)NCCc2ccc(F)cc2)CC2(CCCC(COC(=O)NCC3CCCCC3)O2)O1 (stereo partly specified)', -0.124);

(Q) Can you look up the measured composite z-score of `COC(=O)CC=C[C@@H](C)[C@@H](C=NOC[C@@H](O)[C@H]1O[C@@H]2OC(C)(C)O[C@@H]2[C@H]1O)NS(=O)(=O)c1ccc(C)cc1` for me?
(A) -0.196

(Q) Can you look up the measured composite z-score of `CCc1cc2c(nc1CC)CCN(CCC(C)=NOC[C@H]1O[C@H](c3ccccc3)C=C[C@@H]1Oc1ccc(OC)cc1)C2` for me?
(A) -0.0388

(Q) Can you look up the measured composite z-score of COC(=O)[C@H](C)NC(=O)CCC1CC(OC(=O)NCc2ccc3c(c2)OCO3)CC2(CCCC(COC(=O)NCCc3ccccc3OC)O2)O1 (stereo partly specified) for me?
(A) -0.122

(Q) Can you look up the measured composite z-score of CCOC(=O)[C@H](Cc1ccccc1)NC(=O)CCC1CC(OC(=O)NCCc2ccc(F)cc2)CC2(CCCC(COC(=O)NCCc3ccc(Cl)cc3)O2)O1 (stereo partly specified) for me?
(A) 0.671

(Q) Can you look up the measured composite z-score of `CON=C(C)CCC(=O)OC[C@H]1O[C@H](c2ccccc2)C=C[C@@H]1Oc1ccc(OC)cc1` for me?
(A) -0.0144

(Q) Can you look up the measured composite z-score of `CSCC[C@@H]1NC(=O)CC=C[C@@H](C)COC(=O)[C@@H](C)COC1=O` for me?
(A) -0.948

(Q) Can you look up the measured composite z-score of `CC(C)(C)N1C(=O)[C@H]2[C@H]3[C@H](O)[C@H](O)CC(=NO[C@@H]4O[C@H](CO)[C@@H](O)[C@H](O)[C@H]4O)[C@H]3CC[C@H]2C1=O` for me?
(A) -0.0244

(Q) Can you look up the measured composite z-score of `CO[C@@H]1COC(=O)[C@H](CCSC)NC(=O)CC=C[C@@H](C)COC(=O)CCC[C@H]1C` for me?
(A) -0.798

(Q) Can you look up the measured composite z-score of `C#CCCCON=C1C[C@@H](O)[C@@H](O)[C@@H]2[C@@H]3C(=O)N(C(C)(C)C)C(=O)[C@@H]3CC[C@@H]12` for me?
(A) 0.324

(Q) Can you look up the measured composite z-score of `C#CCCCON=C1[C@H]2CCn3c(=O)n(-c4ccccc4)c(=O)n3[C@H]2[C@H](O)[C@@H]2O[C@H]12` for me?
(A) 0.093
